Target: HLA allele molecule DRB*0101 (human)
Experiment: HLA class II competition binding assay: inhibition of the europium-labeled control peptide, time-resolved fluorescence
readout name: IC50 (µM)
Field format: number, assumed µM, no unit text.

# query: IC50 of entry MGEVVAATPTSLLIS (Synthetic peptide; also called wildtype scaffold region segment N-terminal to the BC loop) [scaffold region peptide of SEQ ID NO: 53]
6
